biological target: proMMP9(20-445;ΔFnII) (SEQ ID NO:6) (Homo sapiens, UniProt P14780, DEL216-390); construct: start methionine (N); assay: ThermoFluor binding assay with proMMP9(20-445;ΔFnII)
Sequence (P14780 with tags, fused parts or gaps DEL216-390): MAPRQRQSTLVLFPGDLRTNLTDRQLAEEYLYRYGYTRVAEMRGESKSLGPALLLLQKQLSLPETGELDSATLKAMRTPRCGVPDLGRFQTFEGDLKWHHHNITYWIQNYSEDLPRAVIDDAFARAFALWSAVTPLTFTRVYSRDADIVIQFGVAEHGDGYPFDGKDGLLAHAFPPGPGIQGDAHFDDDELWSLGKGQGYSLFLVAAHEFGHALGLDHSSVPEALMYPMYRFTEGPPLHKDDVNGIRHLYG
Attribute Measured: Kd (µM)

[a] COc1ccc(F)cc1Nc1nc2c(ccc3c2ncn3C)s1
[b] Cn1cnc2c3nc(Nc4ccccc4[N+](=O)[O-])sc3ccc21
[c] COc1ccc(C(N)=O)cc1Nc1nc2c(s1)CCc1ncccc1-2
[d] CCn1c(C)nc2ccc3sc(Nc4cnccc4OC(C)C)nc3c21
List these items ordered by Kd, big to small. Would you mind listing the labels in the order asked for? c, b, d, a
(c: 8.8 µM, b: 3.2 µM, d: 0.38 µM, a: 0.23 µM)
